target: Signal transducer and activator of transcription 3 (Homo sapiens); assay: Inhibition of C-terminal 6His-tagged recombinant human STAT3 (127 to 711 residues) DNA-binding activity transfected in v-Src transformed mouse NIH3T3 cell nuclear extract preincubated for 60 mins followed by addition of radiolabeled hSIE and measured after 30 mins by EMSA analysis; assay type: subcellular, Nucleus
TEST_READOUT: pIC50
Formally, pIC50 is defined as -log10 of the concentration c, with c in mol/L.

Per the records, this compound ( O=C([C@H]1CCN1S(=O)(=O)c1c(F)c(F)c(F)c(F)c1F)N(Cc1ccc(C2CCCCC2)cn1)c1ccc2c(=O)[nH]ncc2c1 ) has pIC50 equal to 6.42

---

target: Signal transducer and activator of transcription 3 (Homo sapiens, UniProt P40763); test: Inhibition of C-terminal 6His-tagged recombinant human STAT3 (127 to 711 residues) DNA-binding activity transfected in v-Src transformed mouse NIH3T3 cell nuclear extract preincubated for 10 mins followed by addition of radiolabeled hSIE and measured after 30 mins by EMSA analysis; format: subcellular, Nucleus
Sequence (P40763 whole entry, the tested form may be a part): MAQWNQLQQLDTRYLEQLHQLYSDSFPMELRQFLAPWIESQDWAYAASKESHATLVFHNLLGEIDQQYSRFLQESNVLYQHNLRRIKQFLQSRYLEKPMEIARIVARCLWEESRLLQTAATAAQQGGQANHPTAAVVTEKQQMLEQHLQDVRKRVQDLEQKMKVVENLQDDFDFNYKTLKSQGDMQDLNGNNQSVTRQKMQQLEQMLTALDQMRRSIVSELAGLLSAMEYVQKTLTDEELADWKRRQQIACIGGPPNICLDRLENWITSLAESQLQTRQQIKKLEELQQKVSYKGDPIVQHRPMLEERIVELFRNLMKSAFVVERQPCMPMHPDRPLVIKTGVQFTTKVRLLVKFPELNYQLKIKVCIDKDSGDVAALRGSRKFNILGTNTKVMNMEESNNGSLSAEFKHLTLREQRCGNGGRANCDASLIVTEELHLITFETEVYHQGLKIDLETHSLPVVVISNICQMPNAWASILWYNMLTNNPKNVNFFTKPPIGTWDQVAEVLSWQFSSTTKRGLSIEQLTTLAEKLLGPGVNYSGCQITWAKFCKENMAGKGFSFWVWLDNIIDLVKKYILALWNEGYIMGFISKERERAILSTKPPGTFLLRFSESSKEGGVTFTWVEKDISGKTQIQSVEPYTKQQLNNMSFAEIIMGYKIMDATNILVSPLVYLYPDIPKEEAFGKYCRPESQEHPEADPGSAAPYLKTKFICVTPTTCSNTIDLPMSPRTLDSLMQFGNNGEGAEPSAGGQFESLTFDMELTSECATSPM
TEST_READOUT: IC50 (µM)
Write it as a number; the unit µM goes unstated.

Per the records, this molecule ( O=C([C@H]1CCN1S(=O)(=O)c1c(F)c(F)c(F)c(F)c1F)N(Cc1ccc(C2CCCCC2)cn1)c1ccc2c(=O)[nH]ncc2c1 ) has IC50 equal to 1.5

---

target: Signal transducer and activator of transcription 3 (Homo sapiens); assay: Inhibition of recombinant wild type tyrosine phosphorylated C-terminal 6His tagged human STAT3 (127 to 711 residues) DNA-binding activity transfected in v-Src transformed mouse NIH3T3 cell nuclear extract preincubated for 30 mins followed by addition of radiolabeled hSIE and measured after 30 mins by EMSA analysis; format: subcellular, Nucleus
TEST_READOUT: pIC50
Formally, pIC50 is defined as -log10 of the concentration c, with c in mol/L.

Lab entry: Signal transducer and activator of transcription 3 (Homo sapiens) assay, compound O=C([C@H]1CCN1S(=O)(=O)c1c(F)c(F)c(F)c(F)c1F)N(Cc1ccc(C2CCCCC2)cn1)c1ccc2c(=O)[nH]ncc2c1 , pIC50 = 5.32

---

target: UniProt P40763; experiment: Displacement of 5-carboxyfluorescein GpYLPQTV-NH2 probe from C-terminal 6His-tagged recombinant human STAT3 (127 to 711 residues) SH2 domain extracted from Escherichia coli BL21 (DE3) assessed as inhibition of dimerization preincubated for 10 mins followed by probe addition and measured after 30 mins by fluorescence polarization assay
Where a SMILES comes first, the peptide text is derived from it. [ ]: non-standard residue; d: D form. pY = N[C@@H](Cc1ccc(OP(=O)(O)O)cc1)C(=O)O
TEST_READOUT: pIC50
Formally, pIC50 is defined as -log10 of the concentration c, with c in mol/L.

INSERT INTO measurements (compound, tested_on, measured_value) VALUES
  ('O=C(O)c1ccc(N(Cc2cnc(C3CCCCC3)cn2)C(=O)[C@H]2CCN2S(=O)(=O)c2c(F)c(F)c(Cl)c(F)c2F)cc1O', 'UniProt P40763', 3.72);

Per the records, this compound ( CC(C)C[C@H](NC(=O)[C@H](Cc1ccc(OP(=O)(O)O)cc1)NC(=O)CN)C(=O)N1CCC[C@H]1C(=O)N[C@@H](CCC(N)=O)C(=O)N[C@H](C(=O)N[C@H](C(=O)O)C(C)C)[C@@H](C)O (H-G[pY]LPQTV-OH) ) has pIC50 equal to 6.54

Per the records, this compound ( CN(CC(=O)N(Cc1ccc(C2CCCCC2)cc1)c1ccc(C(=O)O)c(O)c1)S(=O)(=O)c1c(F)c(F)c(Cl)c(F)c1F ) has pIC50 equal to 4.32

Per the records, this compound ( Cc1ccc(S(=O)(=O)N2CC[C@@H]2C(=O)N(Cc2ccc(C3CCCCC3)cn2)c2ccc(C(=O)O)c(O)c2)cc1 ) has pIC50 equal to 4.06
